Please respond with reported glycan array binding signal (z-score) for every item in the list.
- Target desc: Fuc(a1-2)[Gal(a1-3)]Gal(b1-4)GlcNAc(b1-3)[Fuc(a1-2)[Gal(a1-3)]Gal(b1-4)GlcNAc(b1-6)]GalNAc
- Assay method text: glycan array binding signal (z-score within array); higher = stronger binding
- Conditions used: glycan notation: IUPAC condensed, linker removed
Shown is part of a subset that was picked to be rich in the strongest signals.
Give the figure only, with no unit attached.

Query string: Could you tell me which glycan array binding signal (z-score) is on file for AAL (Agrocybe aegerita), Q6WY08 (protein) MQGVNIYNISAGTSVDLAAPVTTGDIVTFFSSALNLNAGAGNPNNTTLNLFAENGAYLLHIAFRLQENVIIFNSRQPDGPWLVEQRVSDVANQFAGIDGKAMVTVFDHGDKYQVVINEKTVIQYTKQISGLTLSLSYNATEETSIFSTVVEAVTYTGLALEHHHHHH ?
Result string: -0.138

Query string: Could you tell me which glycan array binding signal (z-score) is on file for Thrombomodulin (Mus musculus) (protein) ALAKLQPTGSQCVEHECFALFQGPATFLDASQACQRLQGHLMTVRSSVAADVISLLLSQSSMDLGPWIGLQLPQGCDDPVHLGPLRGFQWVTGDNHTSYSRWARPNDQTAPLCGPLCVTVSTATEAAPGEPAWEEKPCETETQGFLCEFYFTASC ?
Result string: 5.4

Query string: Could you tell me which glycan array binding signal (z-score) is on file for rCnSL-A (Clitocybe nebularis) (protein) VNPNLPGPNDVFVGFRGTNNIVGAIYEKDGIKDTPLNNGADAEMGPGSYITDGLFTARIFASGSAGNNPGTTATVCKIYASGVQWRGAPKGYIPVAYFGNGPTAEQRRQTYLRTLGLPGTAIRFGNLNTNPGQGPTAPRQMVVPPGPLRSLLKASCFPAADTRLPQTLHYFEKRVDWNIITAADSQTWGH ?
Result string: -0.176

The reported measurements were obtained from the supplement of paper PMC8728848.
